test target: metallo-beta-lactamase IMP-1 (Pseudomonas aeruginosa) (UniProt Q79MP6)
Sequence (Q79MP6 1-246): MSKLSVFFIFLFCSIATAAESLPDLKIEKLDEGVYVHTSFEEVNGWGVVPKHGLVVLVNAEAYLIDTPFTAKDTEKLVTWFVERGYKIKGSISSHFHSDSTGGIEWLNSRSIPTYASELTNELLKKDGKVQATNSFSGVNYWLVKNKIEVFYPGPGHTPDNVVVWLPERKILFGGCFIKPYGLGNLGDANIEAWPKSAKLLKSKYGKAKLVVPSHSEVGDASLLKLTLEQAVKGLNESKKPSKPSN
experiment description: inhibition of IMP-1 substrate hydrolysis – biochemical, epi-absorbance, dose response, late-stage follow-up (AID 2768)
conditions: purified IMP-1, absorbance substrate hydrolysis
readout type: IC50

[[record]]
given_smiles = "[Hg+][c]1ccccc1"
reported_value = "1510 nM"

[[record]]
given_smiles = "Cc1cc[c]([Hg+])cc1"
reported_value = "1810 nM"

[[record]]
given_smiles = "CC(=O)Nc1cc[c]([Hg+])cc1"
reported_value = "3740 nM"

[[record]]
given_smiles = "COc1cccc[c]1[Hg+]"
reported_value = "2330 nM"

[[record]]
given_smiles = "O=C(O)c1ccc[c]([Hg+])c1"
reported_value = "1330 nM"

[[record]]
given_smiles = "O=C(O)c1cc[c]([Hg][Cl])cc1"
reported_value = "8700 nM"

